biological target: GST-G3BP1 (human, UniProt Q13283 1-466); assay: fluorescence anisotropy
Sequence (Q13283 whole entry): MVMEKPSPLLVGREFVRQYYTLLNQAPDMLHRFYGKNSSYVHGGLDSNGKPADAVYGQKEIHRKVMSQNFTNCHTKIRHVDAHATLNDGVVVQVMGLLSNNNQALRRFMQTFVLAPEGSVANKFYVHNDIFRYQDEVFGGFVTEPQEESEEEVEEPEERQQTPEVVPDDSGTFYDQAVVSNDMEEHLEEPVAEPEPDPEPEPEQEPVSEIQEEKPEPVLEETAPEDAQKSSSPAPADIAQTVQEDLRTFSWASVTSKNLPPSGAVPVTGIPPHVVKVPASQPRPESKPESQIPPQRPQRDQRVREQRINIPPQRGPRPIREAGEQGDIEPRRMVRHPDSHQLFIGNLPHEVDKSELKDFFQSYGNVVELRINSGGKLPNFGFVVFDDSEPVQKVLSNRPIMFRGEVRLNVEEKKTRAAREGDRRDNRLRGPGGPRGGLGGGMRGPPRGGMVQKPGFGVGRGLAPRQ
pKd: −log10 of the molar value.
property label: pKd

>  <binder>
GUGUAAAAGGGGCGGGUCUGGGUGCG (ssRNA) [NRAS rM4]

>  <property label>
pKd

>  <endpoint result>
6.58

$$$$
>  <binder>
GAGCGCGGAAGCGCGCGCGCGCGCGCGCGG (ssRNA) [PITX1 rM4]

>  <property label>
pKd

>  <endpoint result>
6.12

$$$$
